All figures here come from the supplement of paper PMC12494721.

I'd be grateful if you could share measured fold change of Cadaverine concentration for these entries.
System: Escherichia coli IAI1
Assay: fold change of Cadaverine concentration vs plate DMSO controls (fold change (ratio)); higher = more amine produced, active = hit call of the paper (significant change in both replicates, either direction)
Conditions: incubation time: 27 h, anaerobic, 37 °C
Where a name gives a salt, the structure may show the parent alone.
Numbers only.

Solved cases (8 shown):
compound	target_or_system	fold change of Cadaverine concentration
Cc1oncc1C(=O)Nc1ccc(C(F)(F)F)cc1 [Leflunomide] (20 µM)	Escherichia coli IAI1	1.08
O=C(Cn1c(=O)sc2ccc(Cl)cc21)N1CCN(CCO)CC1 [Tiaramide Hydrochloride] (20 µM)	Escherichia coli IAI1	0.963
CN1CCC(=C2c3ccccc3C=Cc3ccccc32)CC1 [Cyproheptadine hydrochloride] (20 µM)	Escherichia coli IAI1	0.973
c1ccc2c(c1)Cc1ccccc1-2 [Fluorene] (20 µM)	Escherichia coli IAI1	0.914
CCCCc1oc2ccc(NS(C)(=O)=O)cc2c1C(=O)c1ccc(OCCCN(CCCC)CCCC)cc1 [Dronedarone hydrochloride] (20 µM)	Escherichia coli IAI1	0.996
Clc1ccccc1CN1CCc2sccc2C1 [Ticlopidine hydrochloride] (20 µM)	Escherichia coli IAI1	0.934
C[C@@H]1C[C@H]2[C@@H]3C[C@H](F)C4=CC(=O)C=C[C@]4(C)[C@@]3(F)[C@@H](O)C[C@]2(C)[C@@]1(O)C(=O)COC(=O)C(C)(C)C [Flumethasone pivalate] (20 µM)	Escherichia coli IAI1	1.02
CC1(C)[C@H](C(=O)O)N2C(=O)C[C@H]2S1(=O)=O [Sulbactam] (20 µM)	Escherichia coli IAI1	0.985

Provide each entry's fold change of Cadaverine concentration from the list below.
1. CCCCN(CCCC)CCC(O)c1cc2c(Cl)cc(Cl)cc2c2cc(C(F)(F)F)ccc12 (stereo unspecified) [Halofantrine hydrochloride] (20 µM)
2. CCN(CC)CCc1nc(-c2ccccc2)no1 [Oxolamine citrate salt] (20 µM)
3. O=C(O)Cc1cc(I)c(Oc2ccc(O)c(I)c2)c(I)c1 [Tiratricol] (20 µM)
4. CC(C)NC(=N)NC(=N)Nc1ccc(Cl)cc1 [Proguanil hydrochloride] (20 µM)
5. C#C[C@]1(O)CC[C@H]2[C@@H]3CCC4=Cc5oncc5C[C@]4(C)[C@H]3CC[C@@]21C [Danazol] (20 µM)
6. Nc1ccn([C@@H]2CS[C@H](CO)O2)c(=O)n1 [Lamivudine] (20 µM)
7. CCOC(=O)OC(C)OC(=O)[C@@H]1N2C(=O)[C@@H](NC(=O)[C@H](N)c3ccccc3)[C@H]2SC1(C)C (stereo partly specified) [Bacampicillin hydrochloride] (20 µM)

## Output
1: 0.955; 2: 1.02; 3: 1.03; 4: 0.868; 5: 0.994; 6: 1.02; 7: 1.6
